Measured OD610 values are reported for all entries that follow.
tested on: Paracoccus carotinifaciens strain E-396 (FERM BP-4283); assay type: cell-based; details: each trace metal added singly at final concentration of Table 1; shaking at 28° C. for 4 days
Source text: […]
Give the value as a plain number.

[I-].[K+] [Potassium iodide]
4

Exercise: Field request: OD610 | item: O.O.[Na+].[Na+].[O]=[Mo](=[O])([O-])[O-] [Sodium molybdate dihydrate]
Solution: 4

Exercise: Give the measured OD610 of [Na+].[Na+].[O]=[W](=[O])([O-])[O-] [Sodium tungstate] .
Solution: 4

Exercise: Name the reported OD610 value associated with the compound O.O.O.O.O.O.[Cl-].[Cl-].[Co+2] [Cobalt chloride hexahydrate]
Solution: 32

Exercise: I'd like to know its OD610. The compound in question is OB(O)O [Boric acid]
Solution: 4

Exercise: Can you look up the measured OD610 of O.O.O.O.O.O.[Cl][Cr]([Cl])[Cl] [Chromium (III) chloride hexahydrate] for me?
Solution: 3

Exercise: GET /values?readout=OD610&item= O=[Se](=O)(O)O [Sodium selenate]
Solution: 3
